Measured values drawn from ChEMBL document CHEMBL2375296 for this set.

SYSTEM_UNDER_TEST: Bcr/Abl fusion protein (Homo sapiens, UniProt P00519)
Sequence (P00519 whole entry, the tested form may be a part): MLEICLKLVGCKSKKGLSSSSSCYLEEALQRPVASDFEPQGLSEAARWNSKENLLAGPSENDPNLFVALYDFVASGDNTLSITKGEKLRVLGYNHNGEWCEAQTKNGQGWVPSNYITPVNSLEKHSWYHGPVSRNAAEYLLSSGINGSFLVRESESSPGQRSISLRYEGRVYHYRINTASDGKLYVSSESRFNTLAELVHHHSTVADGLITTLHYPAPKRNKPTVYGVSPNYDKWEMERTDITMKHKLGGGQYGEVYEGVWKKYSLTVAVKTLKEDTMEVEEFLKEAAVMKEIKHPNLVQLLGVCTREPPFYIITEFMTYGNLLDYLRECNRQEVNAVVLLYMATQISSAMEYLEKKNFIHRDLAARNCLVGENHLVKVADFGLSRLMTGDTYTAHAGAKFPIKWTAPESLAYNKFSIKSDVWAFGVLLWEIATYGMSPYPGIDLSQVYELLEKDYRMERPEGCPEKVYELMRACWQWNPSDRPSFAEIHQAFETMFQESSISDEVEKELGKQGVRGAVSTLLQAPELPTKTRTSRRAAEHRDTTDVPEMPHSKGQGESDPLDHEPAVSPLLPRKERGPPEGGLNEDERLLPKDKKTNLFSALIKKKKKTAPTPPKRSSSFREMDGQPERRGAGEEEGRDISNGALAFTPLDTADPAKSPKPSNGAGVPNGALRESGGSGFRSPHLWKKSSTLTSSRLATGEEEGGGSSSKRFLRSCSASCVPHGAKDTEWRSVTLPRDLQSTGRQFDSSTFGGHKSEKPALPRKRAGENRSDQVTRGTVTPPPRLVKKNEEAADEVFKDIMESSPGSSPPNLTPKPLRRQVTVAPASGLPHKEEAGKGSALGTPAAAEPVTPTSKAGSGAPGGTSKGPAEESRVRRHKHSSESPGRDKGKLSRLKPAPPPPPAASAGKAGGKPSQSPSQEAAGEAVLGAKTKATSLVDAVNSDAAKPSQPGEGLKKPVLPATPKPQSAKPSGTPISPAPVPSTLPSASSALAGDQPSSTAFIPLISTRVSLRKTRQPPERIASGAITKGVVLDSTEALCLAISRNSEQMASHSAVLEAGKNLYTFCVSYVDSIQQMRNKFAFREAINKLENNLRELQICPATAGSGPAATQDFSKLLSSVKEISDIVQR
Sequence (P11274 whole entry, further chain, the tested form may be a part): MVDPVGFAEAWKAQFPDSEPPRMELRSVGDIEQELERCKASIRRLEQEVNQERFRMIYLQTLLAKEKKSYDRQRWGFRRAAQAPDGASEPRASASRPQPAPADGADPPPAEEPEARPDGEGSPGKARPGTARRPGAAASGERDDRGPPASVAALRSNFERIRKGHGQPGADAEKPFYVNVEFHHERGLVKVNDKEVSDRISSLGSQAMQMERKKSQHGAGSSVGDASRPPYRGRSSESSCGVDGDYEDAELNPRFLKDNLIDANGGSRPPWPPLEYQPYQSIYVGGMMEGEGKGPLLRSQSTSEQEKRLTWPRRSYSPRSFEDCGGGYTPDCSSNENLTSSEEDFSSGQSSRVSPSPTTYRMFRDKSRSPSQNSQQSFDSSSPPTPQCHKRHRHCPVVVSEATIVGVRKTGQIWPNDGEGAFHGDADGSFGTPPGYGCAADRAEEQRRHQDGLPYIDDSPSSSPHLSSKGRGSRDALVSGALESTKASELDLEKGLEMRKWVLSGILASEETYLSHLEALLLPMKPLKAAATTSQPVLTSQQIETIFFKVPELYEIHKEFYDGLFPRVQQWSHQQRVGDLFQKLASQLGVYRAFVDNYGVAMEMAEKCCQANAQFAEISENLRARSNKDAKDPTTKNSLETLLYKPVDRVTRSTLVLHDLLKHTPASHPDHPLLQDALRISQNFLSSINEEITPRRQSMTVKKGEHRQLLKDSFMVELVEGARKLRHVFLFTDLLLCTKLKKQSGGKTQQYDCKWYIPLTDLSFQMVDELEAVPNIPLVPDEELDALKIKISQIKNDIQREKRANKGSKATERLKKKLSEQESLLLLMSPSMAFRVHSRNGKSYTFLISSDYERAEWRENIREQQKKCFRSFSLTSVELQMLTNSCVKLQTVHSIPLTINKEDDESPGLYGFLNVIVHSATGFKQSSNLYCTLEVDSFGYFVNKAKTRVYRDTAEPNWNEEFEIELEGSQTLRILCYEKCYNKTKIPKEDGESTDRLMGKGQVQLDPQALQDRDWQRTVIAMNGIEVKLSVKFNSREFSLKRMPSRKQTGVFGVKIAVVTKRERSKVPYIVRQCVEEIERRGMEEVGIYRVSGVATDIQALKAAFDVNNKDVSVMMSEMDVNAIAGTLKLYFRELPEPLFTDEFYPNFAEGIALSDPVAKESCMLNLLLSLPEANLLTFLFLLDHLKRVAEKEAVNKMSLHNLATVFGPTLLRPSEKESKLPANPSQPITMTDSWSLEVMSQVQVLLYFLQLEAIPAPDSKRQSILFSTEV
PROCEDURE_SUMMARY: Inhibition of BCR-ABL kinase (unknown origin)
RECORDED_METRIC: IC50 (nM)

Illustrative cases are given below, each with its answer.
• Cc1ccc(NC(=O)c2ccc(CN3CCC(N(C)C)C3)c(C(F)(F)F)c2)cc1Nc1nccc(-c2cncnc2)n1 (configuration not stated) = 3.98
• Cc1ccc(NC(=O)c2ccc(/N=N/N(C)CCCl)cc2)cc1Nc1nccc(-c2cccnc2)n1 = 17400
• O=[N+]([O-])c1cccc(Nc2nccc(-c3ccncc3)n2)c1 = 61700
• CCN(CC)c1cccc(NC(=O)Nc2ccc(C)c(Nc3nccc(-c4cccnc4)n3)c2)c1 = 1000
• CN1CCN(Cc2ccc(C(=O)Nc3cccc(Nc4nccc(-c5cccnc5)n4)c3)cc2)CC1 = 100
• Cc1cccc(Nc2nccc(-c3cccnc3)n2)c1 = 1820

A. NCCCCNC(=O)c1cccc(Nc2nccc(-c3cccnc3)n2)c1
B. Cc1ccc(NC(=O)c2ccc(CN3CCN(C)CC3)c(Cl)c2)cc1Nc1nccc(-c2cccnc2)n1
Quick check, higher IC50 between A and B ? Selection: enter the item's label.
A
(A: 398 nM, B: 10 nM)

I. O=C(O)c1cccc(Nc2nccc(-c3cccnc3)n2)c1
II. CCCCCCC(=O)Nc1cccc(Nc2nccc(-c3cccnc3)n2)c1
Record comparison, field IC50: mark the lower of I and II . # respond with the chosen item's label
II

I. Cc1ccc(NC(=O)Nc2ccc(N(C)C)cc2)cc1Nc1nccc(-c2cccnc2)n1
II. CCC(=O)Nc1ccc(Sc2nc(Nc3cc(C)[nH]n3)cc(N3CCN(C)CC3)n2)cc1
// select label with min value of measured IC50 from [ I , II ] Give the label of your selection.
II
(II: 603 nM, I: 10000 nM)

###

SYSTEM_UNDER_TEST: Bcr/Abl fusion protein (Homo sapiens, UniProt P00519)
PROCEDURE_SUMMARY: Inhibition of BCR-ABL kinase (unknown origin)
RECORDED_METRIC: IC50 (nM)

- O=C(Nc1cccc(Nc2nccc(-c3cccnc3)n2)c1)c1ccccc1: 398
- N#Cc1ccc(C(=O)Nc2cccc(Nc3nccc(-c4cccnc4)n3)c2)cc1: 1290
- O=C(O)c1ccccc1C(=O)Nc1cccc(Nc2nccc(-c3cccnc3)n2)c1: 2000
- Cc1ccc(NC(=O)c2ccc(CN3CCN(C)CC3)c(I)c2)cc1Nc1nccc(-c2cccnc2)n1: 10
- CCN(CC)c1ccc(NC(=O)Nc2ccc(C)c(Nc3nccc(-c4cccnc4)n3)c2)cc1: 10000

1. Nc1cccc(Nc2nccc(-c3ccncc3)n2)c1
2. CN1CCN(c2ccc(C(=O)Nc3[nH]nc4c3CN(C(=O)Cc3cccs3)C4)cc2)CC1
I need your help: which of the pair 1 , 2 has higher IC50? API: response body contains the label of the selected item.
1

P. COc1ccccc1C(=O)Nc1cccc(Nc2nccc(-c3cccnc3)n2)c1
Q. FC(F)C(F)(F)Oc1cccc(Nc2nccc(-c3ccncc3)n2)c1
Compare P and Q and name the one whose reported IC50 is smaller. Answer with the label corresponding to your selection.
P

###

SYSTEM_UNDER_TEST: Bcr/Abl fusion protein (Homo sapiens)
PROCEDURE_SUMMARY: Inhibition of BCR-ABL kinase (unknown origin)
RECORDED_METRIC: IC50 (nM)

Here are 6 compounds together with their reported answers.
• NCCCn1ccc2c(-c3ccnc(Nc4cccc(OC(F)(F)C(F)F)c4)n3)cccc21 = 347
• O=C(Nc1cccc(Nc2nccc(-c3cccnc3)n2)c1)c1cccnc1 = 151
• O=C(Nc1cccc(Nc2nccc(-c3cccnc3)n2)c1)c1ccc(F)cc1 = 200
• Cc1ccc(NC(=O)c2ccccc2)cc1Nc1nccc(-c2cccnc2)n1 = 398
• O=C(Nc1cccc(Nc2nccc(-c3cccnc3)n2)c1)C1CCCCC1 = 447
• O=C(Nc1cccc(Nc2nccc(-c3cccnc3)n2)c1)C1=CC=CCC1=S = 302

1. c1cncc(-c2ccnc(Nc3cccc(-n4ccnc4)c3)n2)c1
2. COc1ccccc1C(=O)Nc1ccc(C)c(Nc2nccc(-c3cccnc3)n2)c1
3. O=C(Nc1cccc(Nc2nccc(-c3cccnc3)n2)c1)c1ccncc1
4. Cc1ccc(N)cc1Nc1nccc(-c2cccnc2)n1
Order by IC50, ascending. Dear reader, please state the labels in the requested order.
3, 2, 4, 1

###

SYSTEM_UNDER_TEST: Bcr/Abl fusion protein (Homo sapiens, UniProt P00519)
PROCEDURE_SUMMARY: Inhibition of BCR-ABL kinase (unknown origin)
RECORDED_METRIC: IC50 (µM)

Known IC50 results, listed for orientation:
* Cc1ccc(-c2ccnc(Nc3cccc(OC(F)(F)C(F)F)c3)n2)cc1 | 50.1
* COCCN/N=N/c1cccc(Nc2cc(-c3cccnc3)ncn2)c1 | 5.37

a. O=[N+]([O-])c1cccc(Nc2nccc(-c3cccnc3)n2)c1
b. Cc1ccc(NC(=O)NCc2cccc(Cl)c2)cc1Nc1nccc(-c2cccnc2)n1
In terms of reported IC50, does a or b have the smaller number? Which one? Tell me its label.
b

1. O=C(Nc1cccc(Nc2nccc(-c3cccnc3)n2)c1)c1ccccn1
2. Cc1ccc(NC(=O)c2ccc(N)cc2)cc1Nc1nccc(-c2cccnc2)n1
Consider entries 1 and 2 . Which has the numerically lower IC50? Pick one and reply with its label.
1
(1: 3.8 µM, 2: 67.6 µM)

1. O=[N+]([O-])c1cccc(Nc2nccc(-c3ccccn3)n2)c1
2. CC(C)(NC(=O)c1cc2c(NC(=O)c3ccc(CN4CCCCC4)cc3)n[nH]c2s1)c1ccccc1
3. Nc1ccc(C(=O)Nc2cccc(Nc3nccc(-c4cccnc4)n3)c2)cc1
Rank the items in ascending order with respect to IC50. Reply with the item labels sorted in the order that was asked for.
2, 1, 3
(2: 0.0209 µM, 1: 1.2 µM, 3: 9.77 µM)

a. Nc1cccc(Nc2nccc(-c3cccnc3)n2)c1
b. Cc1ccc(NC(=O)NCCN2CCCC2)cc1Nc1nccc(-c2cccnc2)n1
Which one would you say has the larger IC50 value: a , or b ? Respond using the label that marks the chosen record.
b

###

SYSTEM_UNDER_TEST: Bcr/Abl fusion protein (Homo sapiens)
PROCEDURE_SUMMARY: Inhibition of BCR-ABL kinase (unknown origin)
RECORDED_METRIC: IC50 (nM)

Observe how each entry below is paired with its result.
• COCCN(C)/N=N/c1ccc(C(=O)Nc2cccc(Nc3nccc(-c4cccnc4)n3)c2)cc1 = 33200
• CN1CCN(c2ccc(C(=O)Nc3n[nH]c4sc(C(=O)NC(C)(C)c5ccccc5)cc34)cc2)CC1 = 4.07
• Cc1ccc(NC(=O)c2ccc(/N=N/N(C)C)cc2)cc1Nc1nccc(-c2cccnc2)n1 = 2190
• c1cc(CCN2CCOCC2)cc(Nc2nccc(-c3cccnc3)n2)c1 = 10000

1. Cc1ccc(NC(=O)Nc2cccc(N(C)C)c2)cc1Nc1nccc(-c2cccnc2)n1
2. Cc1ccc(C(=O)Nc2cccc(Nc3nccc(-c4cccnc4)n3)c2)cc1
Of the two listed items, which has the higher IC50? First: 1 Second: 2 Kindly state the label of the option you pick.
2

a. Cc1ccc(NC(=O)c2ccc(Cl)cc2)cc1Nc1nccc(-c2cccnc2)n1
b. Clc1cccc(Nc2nccc(-c3cccnc3)n2)c1
Of a and b , which one carries the higher reported IC50? Label of pick, please.
b

###

SYSTEM_UNDER_TEST: Bcr/Abl fusion protein (Homo sapiens, UniProt P00519)
PROCEDURE_SUMMARY: Inhibition of BCR-ABL kinase (unknown origin)
RECORDED_METRIC: IC50 (nM)

• CC(=O)Nc1ccc(C)c(Nc2nccc(-c3cccnc3)n2)c1 = 5750

I. Cc1ccc(NC(=O)N2CCN(C)CC2)cc1Nc1nccc(-c2cccnc2)n1
II. Cc1ccc(NC(=O)c2ccc(CN3CCC(CN(C)C)C3)c(C(F)(F)F)c2)cc1Nc1nccc(-c2cncnc2)n1 (configuration not stated)
III. Cc1ccc(NC(=O)c2ccc(CN3CC(N(C)C)C3)c(C(F)(F)F)c2)cc1Nc1nccc(-c2cncnc2)n1
Put the entries in order of IC50, starting with the largest number. The reply should contain the labels ordered as requested.
I, III, II

###

SYSTEM_UNDER_TEST: Bcr/Abl fusion protein (Homo sapiens, UniProt P00519)
PROCEDURE_SUMMARY: Inhibition of BCR-ABL kinase (unknown origin)
IC50: recorded values
Please respond with the number in nM and leave the unit unwritten.

# IC50 (molecule: COC(=O)c1cccc(Nc2nccc(-c3cccnc3)n2)c1 ) is 5130

Looking up FC(F)C(F)(F)Oc1cccc(Nc2nccc(-c3c[nH]c4ccccc34)n2)c1 , I found its IC50 recorded as 372

Noted for Cc1ccc(NC(=O)c2ccc3ccccc3c2)cc1Nc1nccc(-c2cccnc2)n1 : its IC50 reads 200
